SYSTEM: UniProt:P29597
TEST: pSTAT4 Cell Assay (MSD, NK92 cells)
Format: cell-based
Description: The inhibitory potency of compounds of the disclosure against the Tyk2 kinase activity on STAT4 was evaluated using an MSD-platform plate-based assay format. NK92 cells natively expressing STAT4 and Tyk2 were serum-starved to reduce background phosphorylation levels, then cells were treated compounds for 1 hr with a 10-point four-fold dilution series starting at 10 μM. Cells were then stimulated with 30 ng/mL IL2 for 15 minutes. […]
Measured IC50, listed per entry for reference.

Some compounds with known IC50 results, for comparison:
CPD_SMILES | IC50
COCCN(C)c1nnc(-c2cnc(NC(C)=O)cc2Nc2ccnc(C(C)(F)F)n2)s1 | ≤ 10 nM
CC(=O)Nc1cc(Nc2cc(C)nc(C(C)(F)F)n2)c(-c2ncc(CN3CCN(C)CC3)s2)cn1 | ≤ 10 nM
CC(=O)Nc1cc(Nc2cc(C)nc(C(C)(F)F)n2)c(-c2ccnc(C(C)(F)F)n2)cn1 | ≤ 10 nM
CCc1cc(Nc2cc(NC(C)=O)ncc2-c2ccc(CN3C[C@@H]4C[C@H]3CO4)cn2)nc(C(C)(F)F)n1 | ≤ 10 nM
CCc1cc(Nc2cc(NC(C)=O)ncc2-c2nccc(CN3C[C@H]4C[C@@H]3CO4)n2)nc(C(C)(F)F)n1 | 10 to 100 nM
COCCc1cnn(-c2cnc(NC(C)=O)cc2Nc2cc(C)nc(C(C)(F)F)n2)c1 | 10 to 100 nM

We now examine a further compound.
# return IC50 for COc1ccc(-c2cnc(NC(C)=O)cc2Nc2cc(C(C)C)nc(C(C)(F)F)n2)nn1 , test system: UniProt:P29597
≤ 10 nM

* * *

SYSTEM: UniProt P23458
Sequence (P23458 whole entry): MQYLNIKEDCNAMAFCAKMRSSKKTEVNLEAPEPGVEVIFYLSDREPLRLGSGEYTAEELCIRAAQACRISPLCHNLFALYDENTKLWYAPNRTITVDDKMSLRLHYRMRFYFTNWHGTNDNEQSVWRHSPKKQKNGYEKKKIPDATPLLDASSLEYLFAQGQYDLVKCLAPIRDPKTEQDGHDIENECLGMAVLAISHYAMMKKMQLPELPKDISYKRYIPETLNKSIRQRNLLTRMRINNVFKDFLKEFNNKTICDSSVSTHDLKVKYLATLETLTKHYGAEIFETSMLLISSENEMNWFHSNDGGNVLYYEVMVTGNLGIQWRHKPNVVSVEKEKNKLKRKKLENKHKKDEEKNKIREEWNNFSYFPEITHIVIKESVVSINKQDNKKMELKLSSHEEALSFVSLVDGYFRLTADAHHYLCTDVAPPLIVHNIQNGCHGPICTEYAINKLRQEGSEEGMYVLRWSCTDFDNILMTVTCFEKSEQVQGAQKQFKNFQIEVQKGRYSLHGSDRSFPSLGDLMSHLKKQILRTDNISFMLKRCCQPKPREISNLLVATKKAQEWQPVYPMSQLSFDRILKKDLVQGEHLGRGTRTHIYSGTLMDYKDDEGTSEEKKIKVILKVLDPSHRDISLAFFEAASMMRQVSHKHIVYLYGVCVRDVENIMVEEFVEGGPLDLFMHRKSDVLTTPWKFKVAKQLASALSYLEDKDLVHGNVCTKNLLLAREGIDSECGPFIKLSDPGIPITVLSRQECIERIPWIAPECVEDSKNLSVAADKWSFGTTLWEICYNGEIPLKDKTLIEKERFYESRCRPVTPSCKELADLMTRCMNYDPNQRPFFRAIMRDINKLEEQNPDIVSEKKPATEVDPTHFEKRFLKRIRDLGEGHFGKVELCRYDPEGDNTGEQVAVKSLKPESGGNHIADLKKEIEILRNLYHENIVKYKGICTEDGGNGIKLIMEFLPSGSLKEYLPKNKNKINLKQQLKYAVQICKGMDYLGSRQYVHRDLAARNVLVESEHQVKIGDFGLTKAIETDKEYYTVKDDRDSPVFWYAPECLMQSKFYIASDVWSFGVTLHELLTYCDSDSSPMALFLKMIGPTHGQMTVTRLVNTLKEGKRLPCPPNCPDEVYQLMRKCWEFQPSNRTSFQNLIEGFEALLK
TEST: pSTAT3 Cell Assay (MSD, TF1 cells)
Type: cell-based
SETUP_CONDITIONS: IL-6 stimulation, MSD
ASSAY_READOUT: IC50

Some compounds with known IC50 results, for comparison:
COMPOUND | ASSAY_READOUT | VALUE_OBSERVED
CCOc1cc(Nc2cc(NC(C)=O)ncc2OCCOC)nc(C(C)(F)F)n1 [Example 77] | IC50 | ≥ 1000 nM
COc1cnc(NC(C)=O)cc1Nc1cc(C(C)C)nc(C(C)(F)F)n1 [Example 52] | IC50 | ≥ 1000 nM
CO[C@H]1C[C@H](Oc2cnc(NC(C)=O)cc2Nc2cc(OC3CC3)nc(C(C)(F)F)n2)C1 [Example 350] | IC50 | ≥ 1000 nM
COc1cnc(NC(C)=O)cc1Nc1cc(C)nc(C(C)(F)F)n1 [Example 46] | IC50 | ≥ 1000 nM

We now examine a further compound.
Please list IC50 recorded for the compound CCc1cc(Nc2cc(NC(C)=O)ncc2-c2ccc(CN(C)C)cn2)nc(C(C)(F)F)n1 [Example 266]
100 to 1000 nM

* * *

SYSTEM: JH2 domain of human Tyk2 (Homo sapiens (Human))
Sequence (P29597 575-876): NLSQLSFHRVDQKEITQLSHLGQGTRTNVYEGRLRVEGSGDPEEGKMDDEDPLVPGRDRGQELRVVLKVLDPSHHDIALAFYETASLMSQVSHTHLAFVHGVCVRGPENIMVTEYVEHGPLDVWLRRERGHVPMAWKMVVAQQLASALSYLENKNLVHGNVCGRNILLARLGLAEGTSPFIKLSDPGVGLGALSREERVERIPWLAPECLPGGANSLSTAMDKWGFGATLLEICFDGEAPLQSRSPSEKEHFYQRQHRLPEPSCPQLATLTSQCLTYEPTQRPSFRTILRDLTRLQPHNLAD
TEST: JH2 Biochemical Assay (TR-FRET probe displacement)
Format: binding
SETUP_CONDITIONS: TR-FRET probe displacement, JH2 domain of human Tyk2
pIC50: −log10 of the molar value.
ASSAY_READOUT: pIC50

Some compounds with known pIC50 results, for comparison:
COMPOUND | SYSTEM | VALUE_OBSERVED
CC(=O)Nc1cc(Nc2cc(C)nc(C(C)(F)F)n2)c(-c2cc(N3CCN(C)CC3)ncn2)cn1 | JH2 domain of human Tyk2 (Homo sapiens (Human)) | 7.00 to 8.00
COCC(C)Oc1cnc(NC(C)=O)cc1Nc1cc(C)nc(C(C)(F)F)n1 (stereo not shown) | JH2 domain of human Tyk2 (Homo sapiens (Human)) | ≥ 8.00

Please list pIC50 recorded for the compound [2H]C([2H])([2H])n1cc(-c2cc(Nc3cc(NC(C)=O)ncc3OCC)nc(C(C)(F)F)n2)cn1
≥ 8.00

Please list pIC50 recorded for the compound CCOc1cnc(NC(C)=O)cc1Nc1cc(C)nc(C(C)(F)F)n1
≥ 8.00
